- System: SW480
- Procedure details: Cytotoxic assay (IC50) in SW480
- Format: cell-based
- Applied conditions: Homo sapiens, SW480 cell line
Property label: pIC50
Numbers only, as −log10 of the molar value.

Req: Enter recorded pIC50 with SW480 for O=c1[nH]cc(F)c(=O)[nH]1 [5-FU, fluorouracil] here.
Resp: 4.64

====

- System: LoVo
- Procedure details: Cytotoxic assay (IC50) in LoVo
- Format: cell-based, human
- Applied conditions: LoVo cell line, cytotoxic assay; read-out: IC50
Please respond with reported IC50 for every item in the list.
Numbers only, in µM.

| Compound | Unit descriptor | IC50 |
| --- | --- | --- |
| CCc1c2c(nc3ccc(O)cc13)-c1cc3c(c(=O)n1C2)COC(=O)[C@]3(O)CC [SN-38, 7-ethyl-10-hydroxy-camptothecin] | µM | 0.022 |

Req: Give IC50 for the following compound: O=C1[O][Pt]2([NH][C@@H]3CCCC[C@H]3[NH]2)[O]C1=O
Resp: 1.1

====

- System: HT-29
- Procedure details: Cytotoxic assay (IC50) in HT-29
- Assay type: cell-based, human
- Applied conditions: Homo sapiens, HT-29
Property label: IC50 (µM)
One number for each entry, in µM.

Req: Identify measured IC50 associated with O=c1[nH]cc(F)c(=O)[nH]1
Resp: 3.6

These entries and their values trace back to patent US20240123045A1.
